targetOfAssay: Cytochrome P450 3A4 (Homo sapiens)
assayComment: qHTS Assay for Inhibitors and Substrates of Cytochrome P450 3A4 (AID 884); also: nearly all actives have a fitted effect of over 50% in size
runParameters: recombinant CYP3A4, Luciferin-PPXE luminescence; series mostly up to 57.1 µM
Records with an inconclusive call do not appear. The source made the active and inactive calls. Calls follow the shape of the dose curve; as a rule, active = well fitted inhibition curve with a large enough effect; inconclusive = small, poorly fitted or top-dose-only effect; inactive = no such curve, though single readings can be large or run the other way.
Outcome codes: label 1 = active, label 0 = inactive

compound: CC(CC(O)C1OC1(C)C)C1CCC2(C)C3=CCC4C(C)(C)C(=O)CCC4(C)C3CC[C@@]12C (stereo partly specified)
qualitativeLabel: label 0
--
compound: COc1ccc(C2CC(=O)c3c(O)cc(OC4OC(COC5OC(C)C(O)C(O)C5O)C(O)C(O)C4O)cc3O2)cc1O (stereo unspecified)
qualitativeLabel: label 0
--
compound: C=CCSCC(N)C(=O)O (stereo unspecified)
qualitativeLabel: label 0
--
compound: CC(C)/C(O)=C1/C(=O)OC(c2ccoc2)[C@@]2(C)C(O)C(O)[C@@]34OC5(C)OC67CC(C)(C(O)[C@@]6(O)C(O)[C@@]3(O5)C12)C(CC(=O)O)[C@@]74C (stereo partly specified)
qualitativeLabel: label 1
--
compound: Nc1ncnc2c1ncn2C1CC(O)C(CO)O1 (stereo unspecified)
qualitativeLabel: label 0
--
compound: C=CC1=C(C(=O)O)N2C(=O)C(NC(=O)/C(=N\O)c3csc(N)n3)C2SC1 (stereo unspecified)
qualitativeLabel: label 0
--
compound: CC1CCC(C(C)C)[C@H](OC(=O)c2ccccc2)C1 (stereo partly specified)
qualitativeLabel: label 0
--
compound: Clc1ccc([C@H](Cn2ccnc2)OCc2csc3c(Cl)cccc23)c(Cl)c1
qualitativeLabel: label 1
--
compound: COc1ccc([C@@H]2CC(=O)c3c(O)cc(O)cc3O2)cc1O
qualitativeLabel: label 1
--
compound: O=C(NCO)c1cccnc1
qualitativeLabel: label 0
--
compound: C=C(C)C1COc2cc3oc(=O)ccc3cc2O1 (stereo unspecified)
qualitativeLabel: label 0
--
compound: COc1ccc2c(c1)OC/C(=C\c1ccc(OC)c(O)c1)C2=O
qualitativeLabel: label 1
--
compound: CC(=O)OC1CC2C(C)(C)C(=O)CC[C@]2(C)C2CC[C@@]3(C)C(c4ccoc4)OC(=O)C4OC43[C@]12C (stereo partly specified)
qualitativeLabel: label 1
--
compound: CCCCCCCC/C=C/CCCCCCCCOP(=O)([O-])OCC[N+](C)(C)C
qualitativeLabel: label 0
--
compound: CN(C)CC/C=C1/c2ccccc2COc2ccccc21
qualitativeLabel: label 0
--
compound: OCC1OC(n2cnc3c(Cl)nc(Cl)nc32)C(O)C1O (stereo unspecified)
qualitativeLabel: label 0
--
compound: COc1ccccc1-c1coc2cc(O)ccc2c1=O
qualitativeLabel: label 1
--
compound: CCc1ccc2c(O)c3c(cc2c1C(=O)OC)C(=O)c1c(O)ccc(O)c1C3=O
qualitativeLabel: label 0
--
compound: CC(=O)OC1CC(OC(C)=O)[C@]2(C)C(CC(O)[C@]3(C)C2CC[C@@]2(C)C(c4ccoc4)OC(=O)C4O[C@]432)C1(C)C (stereo partly specified)
qualitativeLabel: label 1
--
compound: C=CCCCCCCCCCCCC(O)CC(O)CO (stereo unspecified) (tested in a mixture with another compound)
qualitativeLabel: label 0
--
compound: CC1(C)OC2C[C@](O)(C(N)=O)C[C@H](O)[C@H]2O1 (stereo partly specified)
qualitativeLabel: label 0
--
compound: CC(CCC(=O)O)C1CCC2C3CC[C@H]4CC(O)CC[C@@]4(C)C3C=C[C@]12C (stereo partly specified)
qualitativeLabel: label 0
--
compound: O=c1[nH]c(Cl)nc2c1ncn2C1OC(CO)C(O)C1O (stereo unspecified)
qualitativeLabel: label 0
--
compound: CC(=O)N1CCCC1C(=O)O (stereo unspecified)
qualitativeLabel: label 0
--
compound: CC[C@@H]1OC(=O)[C@@H](C)[C@H](O[C@H]2C[C@@](C)(OC)[C@@H](O)[C@H](C)O2)C(C)[C@H](O[C@H]2O[C@@H](C)C[C@@H](N(C)C)[C@@H]2O)[C@@](C)(O)C[C@H](C)C(=O)[C@@H](C)[C@H](O)[C@@]1(C)O (stereo partly specified)
qualitativeLabel: label 1
--
compound: COC(=O)CC1C(C)(C)C(=O)C2CC3=C(CC[C@]4(C)C3=CC(=O)OC4c3ccoc3)[C@@]1(C)C2=O (stereo partly specified)
qualitativeLabel: label 1
